apparent Kd (screen) overview
ASSAYED TARGET: T1, TNFR1 (Homo sapiens, UniProt P19438)
T1 chain: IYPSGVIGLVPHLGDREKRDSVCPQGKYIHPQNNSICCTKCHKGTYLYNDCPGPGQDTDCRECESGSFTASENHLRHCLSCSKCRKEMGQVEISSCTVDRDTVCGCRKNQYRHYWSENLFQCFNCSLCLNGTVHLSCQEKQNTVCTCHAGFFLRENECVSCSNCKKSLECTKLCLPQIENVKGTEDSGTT
MEASUREMENT NOTES: yeast display SC50

- BINDER: "L52I (designed binder) MTLQELLREEALRRAEAEAFRYALELLAEKFPEQKEYLLDLAEEIESQIRSISGVDVEDVRKFLDKEWAWVKELLAEHPAELAEVEAARAARLAELRAEVEAKVAA"
  apparent Kd (screen), nM: 0.539
- BINDER: "E58T (designed binder) MTLQELLREEALRRAEAEAFRYALELLAEKFPEQKEYLLDLAEEIESQIRSLSGVDVTDVRKFLDKEWAWVKELLAEHPAELAEVEAARAARLAELRAEVEAKVAA"
  apparent Kd (screen), nM: 0.718
- BINDER: "E36L (designed binder) MTLQELLREEALRRAEAEAFRYALELLAEKFPEQKLYLLDLAEEIESQIRSLSGVDVEDVRKFLDKEWAWVKELLAEHPAELAEVEAARAARLAELRAEVEAKVAA"
  apparent Kd (screen), nM: 0.539
- BINDER: "E9F (designed binder) MTLQELLRFEALRRAEAEAFRYALELLAEKFPEQKEYLLDLAEEIESQIRSLSGVDVEDVRKFLDKEWAWVKELLAEHPAELAEVEAARAARLAELRAEVEAKVAA"
  apparent Kd (screen), nM: 0.49
- BINDER: "E44G (designed binder) MTLQELLREEALRRAEAEAFRYALELLAEKFPEQKEYLLDLAEGIESQIRSLSGVDVEDVRKFLDKEWAWVKELLAEHPAELAEVEAARAARLAELRAEVEAKVAA"
  apparent Kd (screen), nM: 20.2
- BINDER: "A11T (designed binder) MTLQELLREETLRRAEAEAFRYALELLAEKFPEQKEYLLDLAEEIESQIRSLSGVDVEDVRKFLDKEWAWVKELLAEHPAELAEVEAARAARLAELRAEVEAKVAA"
  apparent Kd (screen), nM: 0.593
- BINDER: "W68I (designed binder) MTLQELLREEALRRAEAEAFRYALELLAEKFPEQKEYLLDLAEEIESQIRSLSGVDVEDVRKFLDKEIAWVKELLAEHPAELAEVEAARAARLAELRAEVEAKVAA"
  apparent Kd (screen), nM: 0.79
- BINDER: "L7R (designed binder) MTLQELRREEALRRAEAEAFRYALELLAEKFPEQKEYLLDLAEEIESQIRSLSGVDVEDVRKFLDKEWAWVKELLAEHPAELAEVEAARAARLAELRAEVEAKVAA"
  apparent Kd (screen), nM: 8.56
- BINDER: "A17M (designed binder) MTLQELLREEALRRAEMEAFRYALELLAEKFPEQKEYLLDLAEEIESQIRSLSGVDVEDVRKFLDKEWAWVKELLAEHPAELAEVEAARAARLAELRAEVEAKVAA"
  apparent Kd (screen), nM: 0.446
- BINDER: "A90V (designed binder) MTLQELLREEALRRAEAEAFRYALELLAEKFPEQKEYLLDLAEEIESQIRSLSGVDVEDVRKFLDKEWAWVKELLAEHPAELAEVEAARVARLAELRAEVEAKVAA"
  apparent Kd (screen), nM: 0.593
- BINDER: "K62H (designed binder) MTLQELLREEALRRAEAEAFRYALELLAEKFPEQKEYLLDLAEEIESQIRSLSGVDVEDVRHFLDKEWAWVKELLAEHPAELAEVEAARAARLAELRAEVEAKVAA"
  apparent Kd (screen), nM: 0.718
- BINDER: "A76C (designed binder) MTLQELLREEALRRAEAEAFRYALELLAEKFPEQKEYLLDLAEEIESQIRSLSGVDVEDVRKFLDKEWAWVKELLCEHPAELAEVEAARAARLAELRAEVEAKVAA"
  apparent Kd (screen), nM: 0.539
- BINDER: "D65T (designed binder) MTLQELLREEALRRAEAEAFRYALELLAEKFPEQKEYLLDLAEEIESQIRSLSGVDVEDVRKFLTKEWAWVKELLAEHPAELAEVEAARAARLAELRAEVEAKVAA"
  apparent Kd (screen), nM: 0.593
- BINDER: "V100H (designed binder) MTLQELLREEALRRAEAEAFRYALELLAEKFPEQKEYLLDLAEEIESQIRSLSGVDVEDVRKFLDKEWAWVKELLAEHPAELAEVEAARAARLAELRAEHEAKVAA"
  apparent Kd (screen), nM: 0.869
- BINDER: "R61L (designed binder) MTLQELLREEALRRAEAEAFRYALELLAEKFPEQKEYLLDLAEEIESQIRSLSGVDVEDVLKFLDKEWAWVKELLAEHPAELAEVEAARAARLAELRAEVEAKVAA"
  apparent Kd (screen), nM: 0.539
- BINDER: "L64N (designed binder) MTLQELLREEALRRAEAEAFRYALELLAEKFPEQKEYLLDLAEEIESQIRSLSGVDVEDVRKFNDKEWAWVKELLAEHPAELAEVEAARAARLAELRAEVEAKVAA"
  apparent Kd (screen), nM: 0.593

The reported measurements were obtained from paper PMC12416549.
